// provenance: the array DNA melting data of Ke et al. (doi:10.1101/2024.01.08.574731)

experiment_notes: folding enthalpy; higher = less favourable; fluorescence melt of hairpins on a sequencing array, two-state fit
condition_notes: sodium 0.088 M
Kindly return 1 if reported folding enthalpy is no lower than -30 kcal/mol; return -1 if it is lower.

>>> cat("GTGGAACGAAAGTTTCAC (((.(((....))).)))")
-1
>>> cat("GTGATGGGAAACCGTTAC ((.(.((....)).).))")
1
>>> cat("GATCCGTCCGCGGATC ((((((....))))))")
-1
>>> cat("GTCAGGAAACTGAC (((((....)))))")
1
>>> cat("GTCTAAGAAATTAGAC ((((((....))))))")
1
>>> cat("GATCAATTTTTGATC ((((((...))))))")
-1

Ask: Does the reported folding enthalpy for GATCACGAAAGTGAATC ((((((....))).))) fall at or above the -30 kcal/mol mark?
Result: 1

Ask: Does the reported folding enthalpy for GGACGAGGAAACTCGTTC (.(((((....))))).) fall at or above the -30 kcal/mol mark?
Result: -1

Ask: Does the reported folding enthalpy for GTGGACGGAAACATCCAC (((((.(....).))))) fall at or above the -30 kcal/mol mark?
Result: -1

Ask: Does the reported folding enthalpy for GCTAGCTCGAAAGAGAGC (((..(((....)))))) fall at or above the -30 kcal/mol mark?
Result: 1

Ask: Does the reported folding enthalpy for GAACCGGGAAACCGGCTC ((.((((....)))).)) fall at or above the -30 kcal/mol mark?
Result: 1

Ask: Does the reported folding enthalpy for GCCTTCGAAAGAATTGGC ((((((....)))..))) fall at or above the -30 kcal/mol mark?
Result: 1

Ask: Does the reported folding enthalpy for GTGAACGAAAGTTCCCAC ((((((....)))..))) fall at or above the -30 kcal/mol mark?
Result: 1

Ask: Does the reported folding enthalpy for GCGTCGTTACGC ((((....)))) fall at or above the -30 kcal/mol mark?
Result: 1

Ask: Does the reported folding enthalpy for GCGTTCCCACGC ((((....)))) fall at or above the -30 kcal/mol mark?
Result: 1
